Listing of entries alongside the reported IC50.
Molecular target: Orexin receptor type 2 (Homo sapiens, UniProt O43614)
Sequence (O43614 whole entry): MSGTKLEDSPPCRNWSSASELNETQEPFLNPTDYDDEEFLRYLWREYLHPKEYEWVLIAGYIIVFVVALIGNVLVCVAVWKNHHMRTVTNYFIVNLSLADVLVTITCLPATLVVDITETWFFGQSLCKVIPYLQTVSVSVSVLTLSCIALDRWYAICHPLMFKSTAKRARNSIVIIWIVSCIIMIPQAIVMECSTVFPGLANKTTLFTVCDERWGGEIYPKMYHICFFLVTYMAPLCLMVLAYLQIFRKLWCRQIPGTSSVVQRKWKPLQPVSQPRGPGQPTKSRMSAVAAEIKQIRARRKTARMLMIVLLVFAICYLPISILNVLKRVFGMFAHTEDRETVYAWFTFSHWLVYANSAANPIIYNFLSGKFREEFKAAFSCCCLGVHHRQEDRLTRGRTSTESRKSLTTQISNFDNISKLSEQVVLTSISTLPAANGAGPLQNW
Assay: FLIPR Ca2+ Flux Assay: For intracellular calcium measurements, Chinese hamster ovary (CHO) cells expressing the rat orexin-1 receptor or the human orexin-2 receptor, are grown in Iscove's modified DMEM containing 2 mM L-glutamine, […], 1% hypoxanthine-thymidine supplement, 100 U/ml penicillin, 100 μg/ml streptomycin and 10% heat-inactivated fetal calf serum (FCS). The cells are seeded at 20,000 cells/well into Becton-Dickinson black 384-well clear bottom sterile plates coated with poly-D-lysine. All reagents were from GIBCO-Invitrogen Corp. The seeded plates are incubated overnight at 37° C. and 5% CO2. Ala-6,12 human orexin-A as the agonist is prepared as a 1 mM stock solution in 1% bovine serum albumin (BSA) and diluted in assay buffer (HBSS containing 20 mM HEPES, 0.1% BSA and 2.5 mM probenecid, pH7.4) for use in the assay at a final concentration of 70 pM. Test compounds are prepared as 10 mM stock solution in DMSO, then diluted in 384-well plates, first in DMSO, then assay buffer. On the day of the assay, cells are washed 3 times with 100 μl assay buffer and then incubated for 60 min (37° C., 5% CO2) in 60 μl assay buffer containing 1 μM Fluo-4AM ester, 0.02% pluronic acid, and 1% BSA. The dye loading solution is then aspirated and cells are washed 3 times with 100 μl assay buffer. 30 μl of that same buffer is left in each well. Within the Fluorescent Imaging Plate Reader (FLIPR, Molecular Devices), test compounds are added to the plate in a volume of 25 μl, incubated for 5 min and finally 25 μl of agonist is added.
assayReadout: IC50 (nM)

* COC(=O)Cc1nc([C@@H]2CC[C@@H](C)N(C(=O)c3ccccc3-n3nccn3)C2)oc1-c1ccccc1 | 33
* Cc1oc([C@@H]2CC[C@@H](C)N(C(=O)c3cscc3-c3ncccn3)C2)nc1C(C)(C)O | 56
